viability, T/C reference
Tested on: 454973-116-R2-J3-PDC complex spheroid viability
method: Anticancer human tumor 454973-116-R2-J3-PDC patient-derived pancreatic carcinoma cell line growth inhibition [POLQ]
test.settings: second compound 1 µM; first compound 0.316 µM; stronger effect = lower value
recorded.metric: viability, T/C (%)

CNCc1ccc(-c2[nH]c3cc(F)cc4c3c2CCNC4=O)cc1 + Nc1ccc(C#CCN(C(=O)Cc2ncc(C(F)(F)F)cc2C(F)(F)F)c2ccc(F)cc2)nn1; 106
C#Cc1c(F)ccc2cc(O)cc(-c3ncc4c(N5CC6CCC(C5)N6)nc(OCC56CCCN5CC(F)C6)nc4c3F)c12 (stereo not given) + Cc1cccc(N(C)C(=O)C2C(O)CCN2c2nc(C)cc(C(F)(F)F)c2C#N)c1; 31.9
O=C(c1cc(Cc2n[nH]c(=O)c3ccccc23)ccc1F)N1CCN(C(=O)C2CC2)CC1 + COC1C(OC(N)=O)C(O)C(Oc2ccc3c(O)c(NC(=O)c4ccc(O)c(CC=C(C)C)c4)c(=O)oc3c2C)OC1(C)C; 104
O=c1[nH]cc(F)c(=O)[nH]1 + COC1C(OC(N)=O)C(O)C(Oc2ccc3c(O)c(NC(=O)c4ccc(O)c(CC=C(C)C)c4)c(=O)oc3c2C)OC1(C)C; 110
CC1COCCN1c1cc(-c2ccnn2C)c2ccnc(-c3ccn[nH]3)c2n1 (stereo not given) + Cc1cccc(N(C)C(=O)C2C(O)CCN2c2nc(C)cc(C(F)(F)F)c2C#N)c1; 35.3

----------
System: 454973-116-R2-J3-PDC complex spheroid viability
method: Anticancer human tumor 454973-116-R2-J3-PDC cell line growth inhibition [POLQ];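 further: spheroids exposed to drugs for seven days before measurement; percent viability relative to DMSO vehicle control wells taken as 100%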
test.settings: second compound 1 µM; first compound 3.16 µM; stronger effect = lower value
viability, T/C reference
recorded.metric: viability, T/C (%)

O=C(Nc1ccc(O)c(NS(=O)(=O)c2ccc(F)cc2)c1)c1ccc(-c2ccccc2)cc1 + Cc1cccc(N(C)C(=O)C2C(O)CCN2c2nc(C)cc(C(F)(F)F)c2C#N)c1; 108
CC1COCCN1c1cc(C2(S(C)(=N)=O)CC2)nc(-c2ccnc3[nH]ccc23)n1 (stereo not given) + Nc1ccc(C#CCN(C(=O)Cc2ncc(C(F)(F)F)cc2C(F)(F)F)c2ccc(F)cc2)nn1; 61.6
O=C(c1cc(Cc2n[nH]c(=O)c3ccccc23)ccc1F)N1CCN(C(=O)C2CC2)CC1 + Nc1ccc(C#CCN(C(=O)Cc2ncc(C(F)(F)F)cc2C(F)(F)F)c2ccc(F)cc2)nn1; 97.4
CCCS(=O)(=O)Nc1ccc(F)c(C(=O)c2c[nH]c3ncc(-c4ccc(Cl)cc4)cc23)c1F + Cc1cccc(N(C)C(=O)C2C(O)CCN2c2nc(C)cc(C(F)(F)F)c2C#N)c1; 126
C=CC(=O)N1CCN(c2nc(=O)n(-c3c(C)ccnc3C(C)C)c3nc(-c4c(O)cccc4F)c(F)cc23)C(C)C1 (stereo not given) + Cc1cccc(N(C)C(=O)C2C(O)CCN2c2nc(C)cc(C(F)(F)F)c2C#N)c1; 110

----------
viability, T/C reference
Test system: 454973-116-R2-J3-PDC complex spheroid viability
method: Anticancer human tumor 454973-116-R2-J3-PDC cell line growth inhibition [POLQ];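 further: spheroids exposed to drugs for seven days before measurement; percent viability relative to DMSO vehicle control wells taken as 100%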
test.settings: second compound 0.1 µM; first compound 0.1 µM; stronger effect = lower value
recorded.metric: viability, T/C (%)

CC[C@@]1(O)C(=O)OCc2c1cc1n(c2=O)Cc2cc3c(CN(C)C)c(O)ccc3nc2-1 + COC1C(OC(N)=O)C(O)C(Oc2ccc3c(O)c(NC(=O)c4ccc(O)c(CC=C(C)C)c4)c(=O)oc3c2C)OC1(C)C; 16.3
C#Cc1c(F)ccc2cc(O)cc(-c3ncc4c(N5CC6CCC(C5)N6)nc(OCC56CCCN5CC(F)C6)nc4c3F)c12 (stereo not given) + Nc1ccc(C#CCN(C(=O)Cc2ncc(C(F)(F)F)cc2C(F)(F)F)c2ccc(F)cc2)nn1; 36
CNCc1ccc(-c2[nH]c3cc(F)cc4c3c2CCNC4=O)cc1 + Cc1cccc(N(C)C(=O)C2C(O)CCN2c2nc(C)cc(C(F)(F)F)c2C#N)c1; 108
CC[C@@]1(O)C(=O)OCc2c1cc1n(c2=O)Cc2cc3c(CN(C)C)c(O)ccc3nc2-1 + Nc1ccc(C#CCN(C(=O)Cc2ncc(C(F)(F)F)cc2C(F)(F)F)c2ccc(F)cc2)nn1; 10.4
COc1ccc([C@@H](O)c2cc(-c3ncnc4cc(N5CCOCC5)ccc34)c(F)cc2Cl)nn1 + Nc1ccc(C#CCN(C(=O)Cc2ncc(C(F)(F)F)cc2C(F)(F)F)c2ccc(F)cc2)nn1; 96.1
Nc1ccn(C2OC(CO)C(O)C2(F)F)c(=O)n1 (stereo not given) + COC1C(OC(N)=O)C(O)C(Oc2ccc3c(O)c(NC(=O)c4ccc(O)c(CC=C(C)C)c4)c(=O)oc3c2C)OC1(C)C; 11.2
C=CCn1c(=O)c2cnc(Nc3ccc(N4CCN(C)CC4)cc3)nc2n1-c1cccc(C(C)(C)O)n1 + COC1C(OC(N)=O)C(O)C(Oc2ccc3c(O)c(NC(=O)c4ccc(O)c(CC=C(C)C)c4)c(=O)oc3c2C)OC1(C)C; 103
CCc1c2c(nc3ccc(O)cc13)-c1cc3c(c(=O)n1C2)COC(=O)[C@]3(O)CC + Cc1cccc(N(C)C(=O)C2C(O)CCN2c2nc(C)cc(C(F)(F)F)c2C#N)c1; 5.52
CCCS(=O)(=O)Nc1ccc(F)c(C(=O)c2c[nH]c3ncc(-c4ccc(Cl)cc4)cc23)c1F + Cc1cccc(N(C)C(=O)C2C(O)CCN2c2nc(C)cc(C(F)(F)F)c2C#N)c1; 111
CCc1cc2c(N3CCc4c(cc(Cn5ccnc5)cc4-c4cn(C)nc4C(F)(F)F)C3=O)cc(C)nc2c(OC)n1 + COC1C(OC(N)=O)C(O)C(Oc2ccc3c(O)c(NC(=O)c4ccc(O)c(CC=C(C)C)c4)c(=O)oc3c2C)OC1(C)C; 107
Cn1ncnc1[C@H]1c2n[nH]c(=O)c3cc(F)cc(c23)N[C@@H]1c1ccc(F)cc1 + Nc1ccc(C#CCN(C(=O)Cc2ncc(C(F)(F)F)cc2C(F)(F)F)c2ccc(F)cc2)nn1; 79.9
CC1COCCN1c1cc(C2(S(C)(=N)=O)CC2)nc(-c2ccnc3[nH]ccc23)n1 (stereo not given) + COC1C(OC(N)=O)C(O)C(Oc2ccc3c(O)c(NC(=O)c4ccc(O)c(CC=C(C)C)c4)c(=O)oc3c2C)OC1(C)C; 114
CC(C)n1c(=O)n(C)c2cnc3cc(F)c(-c4ccc(OCCCN5CCCCC5)nc4)cc3c21 + COC1C(OC(N)=O)C(O)C(Oc2ccc3c(O)c(NC(=O)c4ccc(O)c(CC=C(C)C)c4)c(=O)oc3c2C)OC1(C)C; 112
CC(C)n1c(=O)n(C)c2cnc3cc(F)c(-c4ccc(OCCCN5CCCCC5)nc4)cc3c21 + Nc1ccc(C#CCN(C(=O)Cc2ncc(C(F)(F)F)cc2C(F)(F)F)c2ccc(F)cc2)nn1; 100
COc1cc(C2c3cc4c(cc3C(OC3OC5COC(C)OC5C(O)C3O)C3COC(=O)C23)OCO4)cc(OC)c1O (stereo not given) + Nc1ccc(C#CCN(C(=O)Cc2ncc(C(F)(F)F)cc2C(F)(F)F)c2ccc(F)cc2)nn1; 102
CC1COCCN1c1cc(C2(O)CC3CCC(C2)O3)c2cnn(-c3ccn[nH]3)c2n1 (stereo not given) + Cc1cccc(N(C)C(=O)C2C(O)CCN2c2nc(C)cc(C(F)(F)F)c2C#N)c1; 80.9
CC1COCCN1c1cc(-c2ccnn2C)c2ccnc(-c3ccn[nH]3)c2n1 (stereo not given) + Nc1ccc(C#CCN(C(=O)Cc2ncc(C(F)(F)F)cc2C(F)(F)F)c2ccc(F)cc2)nn1; 54.6
CC1COCCN1c1cc(C2(S(C)(=N)=O)CC2)nc(-c2ccnc3[nH]ccc23)n1 (stereo not given) + Cc1cccc(N(C)C(=O)C2C(O)CCN2c2nc(C)cc(C(F)(F)F)c2C#N)c1; 116
O=C(c1cc(Cc2n[nH]c(=O)c3ccccc23)ccc1F)N1CCN(C(=O)C2CC2)CC1 + COC1C(OC(N)=O)C(O)C(Oc2ccc3c(O)c(NC(=O)c4ccc(O)c(CC=C(C)C)c4)c(=O)oc3c2C)OC1(C)C; 113
CC1COCCN1c1cc(-c2ccnn2C)c2ccnc(-c3ccn[nH]3)c2n1 (stereo not given) + Cc1cccc(N(C)C(=O)C2C(O)CCN2c2nc(C)cc(C(F)(F)F)c2C#N)c1; 74.4
